The measured values listed here are drawn from ChEMBL document CHEMBL1165950.

Provide the reported growth at 0.001 µM of each item.
- Test system: DU-145
- runDescription: Cytotoxicity against human DU145 cells assessed as cell growth at 0.001 uM after 48 hrs by sulforhodamine B assay
- Type: functional
- testParameters: DU-145, 48 h, read-out: Activity
Give bare numbers, in %.

Observe how each entry below is paired with its result.
>>> measured("COc1cc(C)cc(-c2c(-c3ccnc(-c4ccc(C(C)=O)cc4)c3)cnn2CC#N)c1")
109
>>> measured("COc1cc(C)cc(-c2nn(CC#N)cc2-c2ccc(-c3cccc(C(C)=O)c3)nc2)c1")
110
>>> measured("Cc1cc(O)cc(-c2nn(CC#N)cc2-c2ccnc(-c3ccc(N(C)C)cc3)c2)c1")
103
>>> measured("Cc1cc(O)cc(-c2nn(CC#N)cc2-c2ccnc(-c3ccc(Oc4ccccc4)cc3)c2)c1")
104
>>> measured("COc1cc(C)cc(-c2nn(CC#N)cc2-c2ccnc(-c3ccc(N(C)C)cc3)c2)c1")
103

// moving on: another record for growth at 0.001 µM
Query :: Provide growth at 0.001 µM value for the following compound: COc1cc(C)cc(-c2c(-c3ccnc(-c4ccc(N(C)C)cc4)c3)cnn2CC#N)c1
Result :: 102
